Reference source for all entries: paper PMC9137479

subjectOfTest: PenA1 (Burkholderia multivorans, UniProt A0A0H3KN52)
Construct: purified class A beta-lactamase
Sequence (A0A0H3KN52 entry or part of it): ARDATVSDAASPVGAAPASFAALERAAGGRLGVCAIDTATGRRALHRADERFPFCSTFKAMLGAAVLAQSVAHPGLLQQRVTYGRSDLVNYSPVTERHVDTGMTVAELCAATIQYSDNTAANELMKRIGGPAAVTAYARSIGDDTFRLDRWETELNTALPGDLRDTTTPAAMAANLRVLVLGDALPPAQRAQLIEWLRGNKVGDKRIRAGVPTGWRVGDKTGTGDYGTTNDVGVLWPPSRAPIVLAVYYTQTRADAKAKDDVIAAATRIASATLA
assaySummary: steady-state inhibition kinetics
conditionNotes: read-out: PenA1; covalent acyl-enzyme; slow substrate; partition ratio method at 15 min; 10 mM PBS pH 7.4, ~25 °C (stated for hydrolysis curves)
measuredEndpoint: pKi
Give bare numbers, as −log10 of the molar value.

Task item: Item under review: C[C@@H](O)[C@H]1C(=O)N2C(C(=O)O)=C(SC3CN(C4=NCCS4)C3)[C@H](C)[C@H]12 . Reported pKi?
Reply: 5.33

* * *

subjectOfTest: AmpC1 (Burkholderia multivorans, UniProt A0A0H3KQ39)
Construct: purified class C beta-lactamase
Sequence (A0A0H3KQ39 entry or part of it): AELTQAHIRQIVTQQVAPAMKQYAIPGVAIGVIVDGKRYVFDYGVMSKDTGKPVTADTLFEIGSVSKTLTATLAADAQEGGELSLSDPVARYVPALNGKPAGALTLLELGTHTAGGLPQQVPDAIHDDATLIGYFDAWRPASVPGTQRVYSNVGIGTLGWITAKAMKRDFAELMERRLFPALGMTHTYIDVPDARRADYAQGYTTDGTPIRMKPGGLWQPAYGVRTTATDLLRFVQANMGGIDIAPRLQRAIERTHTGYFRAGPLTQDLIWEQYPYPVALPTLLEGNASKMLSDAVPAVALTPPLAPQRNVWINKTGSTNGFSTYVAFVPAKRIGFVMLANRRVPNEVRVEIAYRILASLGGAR
assaySummary: steady-state inhibition kinetics
conditionNotes: covalent acyl-enzyme; not hydrolysed; 10 mM PBS pH 7.4, ~25 °C (stated for hydrolysis curves)
measuredEndpoint: Ki (µM)
One number for each entry, in µM.

Task item: Item under review: C[C@@H](O)[C@H]1C(=O)N2C(C(=O)O)=C(SC3CN(C4=NCCS4)C3)[C@H](C)[C@H]12 . Reported Ki?
Reply: 22
